- TARGET_OR_TEST_SYSTEM: human IgG1 (Homo sapiens, UniProt P01857)
- Construct: all human subtypes derived from myeloma patients; purchased Calbiochem 400120; host or cells: myeloma patients
- Sequence (P01857 1-330 isoform P01857-1): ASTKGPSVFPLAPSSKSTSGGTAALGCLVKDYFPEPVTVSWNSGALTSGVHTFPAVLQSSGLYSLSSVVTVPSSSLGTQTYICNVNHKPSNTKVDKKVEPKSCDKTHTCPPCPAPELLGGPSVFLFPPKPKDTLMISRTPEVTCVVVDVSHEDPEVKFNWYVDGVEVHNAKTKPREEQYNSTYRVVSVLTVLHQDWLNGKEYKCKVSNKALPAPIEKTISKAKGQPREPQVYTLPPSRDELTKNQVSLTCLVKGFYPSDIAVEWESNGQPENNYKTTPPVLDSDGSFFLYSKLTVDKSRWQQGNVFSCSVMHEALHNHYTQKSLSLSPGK
- Type: binding
- EXPERIMENTAL_CONDITIONS: peptide immobilized on NHS activated sepharose 4 fast flow, target ligand density 2.0 μmole/ml; batch filterplate; hIgG1
Each record here notes measured Batch Binding (% Capture of Total Load) hIgG1.
MEASURED_ENDPOINT: Batch Binding (% Capture of Total Load) hIgG1 (%)

INSERT INTO assay_data (substance, result_unit, reading) VALUES
  ('Ac-ACSRDWSGALVWCAGHEPGPEGGGK-NH2 (not fully specified (bridges); printed as Ac-ACSRDWSGALVWCAGHEPGPEGGGK-NH2; cysteine pairing not given here) [DX1142]', '%', 66),
  ('Ac-VCSRDWSGALVWCAGHEPGPEGGGK-NH2 (not fully specified (bridges); printed as Ac-VCSRDWSGALVWCAGHEPGPEGGGK-NH2; cysteine pairing not given here) [DX1145]', '%', 74),
  ('Ac-ECSRDWSGALVWCAGHEPGPEGGGK-NH2 (not fully specified (bridges); printed as Ac-ECSRDWSGALVWCAGHEPGPEGGGK-NH2; cysteine pairing not given here) [DX1144]', '%', 88),
  ('Ac-ERACSRDWSGALVWCAGHEPGPEGGGK-NH2 (not fully specified (bridges); printed as Ac-ERACSRDWSGALVWCAGHEPGPEGGGK-NH2; cysteine pairing not given here) [DX1141]', '%', 17),
  ('Ac-TCSRDWSGALVWCAGHEPGPEGGGK-NH2 (not fully specified (bridges); printed as Ac-TCSRDWSGALVWCAGHEPGPEGGGK-NH2; cysteine pairing not given here) [DX1143]', '%', 88),
  ('Ac-GDRRACSRDWSGALVWCAGHEPGPEGGGK-NH2 (not fully specified (bridges); printed as Ac-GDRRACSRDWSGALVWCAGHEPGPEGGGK-NH2; cysteine pairing not given here) [DX253]', '%', 88);

---

# maps each entry to its Batch Binding (% Capture of Total Load) hIgG4
- TARGET_OR_TEST_SYSTEM: IgG4 (Homo sapiens)
- Sequence (P01861 1-327 isoform P01861-1): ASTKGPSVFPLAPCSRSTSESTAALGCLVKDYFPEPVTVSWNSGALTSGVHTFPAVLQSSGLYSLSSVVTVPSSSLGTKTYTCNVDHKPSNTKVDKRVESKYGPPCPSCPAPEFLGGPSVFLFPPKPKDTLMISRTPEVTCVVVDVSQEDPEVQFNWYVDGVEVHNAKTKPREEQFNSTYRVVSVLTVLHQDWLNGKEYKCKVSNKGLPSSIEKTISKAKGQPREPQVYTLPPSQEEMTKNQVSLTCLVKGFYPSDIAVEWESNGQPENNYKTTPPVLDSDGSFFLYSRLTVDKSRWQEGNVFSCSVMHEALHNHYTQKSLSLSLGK
- Format: binding
- Parameters: all human subtypes derived from myeloma patients; purchased Calbiochem 400126; host or cells: myeloma patients
- EXPERIMENTAL_CONDITIONS: Table 20; average ligand density 1.9 μmole/ml
Non-standard residues stand in square brackets, D forms with d. Nle = CCCC[C@H](N)C(=O)O
MEASURED_ENDPOINT: Batch Binding (% Capture of Total Load) hIgG4 (%)

INSERT INTO results (substance, target_or_test_system, result_unit, reading) VALUES
  ('Ac-[Nle]CVYTTWGELIWCDNHEPGPEGGGK-NH2 (not fully specified (bridges); printed as Ac-[Nle]CVYTTWGELIWCDNHEPGPEGGGK-NH2; cysteine pairing not given here) [DX1068]', 'IgG4 (Homo sapiens)', '%', 21),
  ('Ac-DHMCVYTTWGELIWCDNHEPGPEGGGK-NH2 (not fully specified (bridges); printed as Ac-DHMCVYTTWGELIWCDNHEPGPEGGGK-NH2; cysteine pairing not given here) [DX1062]', 'IgG4 (Homo sapiens)', '%', 49),
  ('Ac-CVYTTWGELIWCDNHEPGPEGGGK-NH2 (not fully specified (bridges); printed as Ac-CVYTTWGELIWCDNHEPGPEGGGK-NH2; cysteine pairing not given here) [DX1069]', 'IgG4 (Homo sapiens)', '%', 51),
  ('Ac-EHMCVYTTWGELIWCDNHEPGPEGGGK-NH2 (not fully specified (bridges); printed as Ac-EHMCVYTTWGELIWCDNHEPGPEGGGK-NH2; cysteine pairing not given here) [DX1063]', 'IgG4 (Homo sapiens)', '%', 45);

The reported numbers originate from patent US20030199671A1.
